Where do the numbers come from? From patent US20100144645A1.

# assaySummary: Oral bioavailability of hydromorphone conjugates
# experimentalParameters: rats, corrected value calculated based on the bioavailability of the control (HM)
Residues, ends and D or L forms follow the SMILES beside them. *: point of attachment. X3 = CN1CC[C@]23c4c5ccc(O)c4OC2C(O*)=CCC3[C@H]1C5
resultType: Oral AUC % (%)

compound: CC[C@H](C)[C@H](NC(=O)[C@H](Cc1ccccc1)NC(=O)[C@H](Cc1ccccc1)NC(=O)[C@H](Cc1ccc(O)cc1)NC(=O)[C@@H](N)Cc1ccc(O)cc1)C(=O)OC1=CCC2[C@H]3Cc4ccc(O)c5c4[C@@]2(CCN3C)C1O5 (stereo partly drawn) [YYFFI-HM] (H-YYFFI-X3)
resultType: Oral AUC %
obsValue: 40
//
compound: CC(C)C[C@H](NC(=O)[C@@H]1CCCN1C(=O)[C@@H]1CCCN1)C(=O)OC1=CCC2[C@H]3Cc4ccc(O)c5c4[C@@]2(CCN3C)C1O5 (stereo partly drawn) [PPL-HM]
resultType: Oral AUC %
obsValue: 22
//
compound: CC(C)C[C@H](NC(=O)[C@H](CCC(=O)O)NC(=O)[C@@H](N)CCC(=O)O)C(=O)OC1=CC[C@H]2[C@H]3Cc4ccc(O)c5c4[C@@]2(CCN3C)[C@H]1O5 [EEL-HM]
resultType: Oral AUC %
obsValue: 27
//
compound: CC(C)[C@H](NC(=O)[C@H](Cc1ccc(O)cc1)NC(=O)[C@@H](N)Cc1ccc(O)cc1)C(=O)OC1=CCC2[C@H]3Cc4ccc(O)c5c4[C@@]2(CCN3C)C1O5 (stereo partly drawn) [YYV-HM]
resultType: Oral AUC %
obsValue: 30
//
compound: CC[C@H](C)[C@H](NC(=O)[C@@H]1CCCN1C(=O)[C@@H]1CCCN1)C(=O)OC1=CCC2[C@H]3Cc4ccc(O)c5c4[C@@]2(CCN3C)C1O5 (stereo partly drawn) [PPI-HM]
resultType: Oral AUC %
obsValue: 21
//
compound: CC[C@H](C)[C@H](NC(=O)[C@H](CCCCN)NC(=O)[C@@H](N)CCCCN)C(=O)OC1=CCC2[C@H]3Cc4ccc(O)c5c4[C@@]2(CCN3C)C1O5 (stereo partly drawn) [KKI-HM]
resultType: Oral AUC %
obsValue: 24

====

# stability 90 C., 20 min BP per record follows
# assaySummary: stability 90 C., 20 min (V, BP, TW, BS) of hydrocodone conjugates
# experimentalParameters: BP (abbreviation not defined)
Residues, ends and D or L forms follow the SMILES beside them. *: point of attachment. X1 = COc1ccc2c3c1OC1C(O*)=CCC4[C@@H](C2)N(C)CC[C@]314

compound: CC[C@H](C)[C@H](NC(=O)[C@@H]1CCCN1C(=O)[C@@H]1CCCN1C(=O)[C@H](Cc1ccc(O)cc1)NC(=O)[C@@H](N)Cc1ccc(O)cc1)C(=O)OC1=CCC2[C@H]3Cc4ccc(OC)c5c4[C@@]2(CCN3C)C1O5 (stereo partly shown) [Tyr2-Pro2-Ile-HC] (H-YYPPI-X1)
stability 90 C., 20 min BP: 100
//
compound: CC[C@H](C)[C@H](NC(=O)[C@H](Cc1ccccc1)NC(=O)[C@H](Cc1ccccc1)NC(=O)[C@H](CCC(=O)O)NC(=O)[C@@H](N)CCC(=O)O)C(=O)OC1=CCC2[C@H]3Cc4ccc(OC)c5c4[C@@]2(CCN3C)C1O5 (stereo partly shown) [Glu2-Phe2-Ile-HC] (H-EEFFI-X1)
stability 90 C., 20 min BP: 100
//
compound: CC[C@H](C)[C@H](NC(=O)CNC(=O)CN)C(=O)OC1=CCC2[C@H]3Cc4ccc(OC)c5c4[C@@]2(CCN3C)C1O5 (stereo partly drawn) [Gly-Gly-Ile-HC]
stability 90 C., 20 min BP: 100
//
compound: CC[C@H](C)[C@H](NC(=O)CNC(=O)CNC(=O)[C@H](CCC(=O)O)NC(=O)[C@@H](N)CCC(=O)O)C(=O)OC1=CCC2[C@H]3Cc4ccc(OC)c5c4[C@@]2(CCN3C)C1O5 (stereo partly shown) [Glu2-Gly2-Ile-HC, Glu2-Gly2-Ile-Hydrocodone] (H-EEGGI-X1)
stability 90 C., 20 min BP: 99
